- experimental-system: UniProt P31639
- test-summary: Inhibitory effects on human SGLT2 activities (14C-AMG uptake, sodium-dependent glucose transport assay)
- condition-set: CHO cells stably expressing hSGLT2, 37° C., 2 h, single determinations
recorded-endpoint: log10 IC50 (log10 of the value in nM)
The figures below represent log10 of IC50, where IC50 is stated in nM.

Q: Fill in: log10 IC50 of `C=Cc1ccc(Cc2cc([C@@H]3O[C@H](CO)[C@@H](O)[C@H](O)[C@H]3O)c3c(c2Cl)OCC3)cc1` is ___
Result: -0.44

Q: Could you do the same for `CCc1ccc(Cc2cc([C@@H]3O[C@H](CO)[C@@H](O)[C@H](O)[C@H]3O)c3c(c2Cl)OCCCO3)cc1` , please?
Result: 0.03

Q: What about this compound? `C=Cc1ccc(Cc2cc([C@@H]3O[C@H](CO)[C@@H](O)[C@H](O)[C@H]3O)c3c(c2Cl)CCC3)cc1`
Result: -0.13

Q: Do the same for CCc1ccc(Cc2cc([C@@H]3O[C@H](CO)[C@@H](O)[C@H](O)[C@H]3O)c3c(c2Cl)OCC3C)cc1 (some centres unmarked) please
Result: -0.14

Q: Moving on to `CCc1ccc(Cc2cc([C@@H]3O[C@H](CO)[C@@H](O)[C@H](O)[C@H]3O)c3c(c2Cl)CCCO3)cc1`
Result: -0.07

Q: Queued: `OC[C@H]1O[C@@H](c2ccc(Cl)c(Cc3ccc4c(c3)CCC4)c2)[C@H](O)[C@@H](O)[C@@H]1O`
Result: 0.33

Q: Cool, now `COc1ccc(Cc2cc([C@@H]3O[C@H](CO)[C@@H](O)[C@H](O)[C@H]3O)c3c(c2C(F)F)CCC3)cc1`
Result: -0.13

Q: Then this compound: CCc1ccc(Cc2cc([C@@H]3O[C@H](CO)[C@@H](O)[C@H](O)[C@H]3O)c3c(c2Cl)OC(C)C3)cc1 (some centres unmarked)
Result: -0.08

Q: Please answer likewise for `CCOc1ccc(Cc2cc([C@@H]3O[C@H](CO)[C@@H](O)[C@H](O)[C@H]3O)c3c(c2Cl)OCC3(C)C)cc1`
Result: 0.26

Q: Continue with `COc1ccc(Cc2cc([C@@H]3O[C@H](CO)[C@@H](O)[C@H](O)[C@H]3O)c3c(c2Cl)OCC3)cc1`
Result: 0.18

Q: Now the same for `COc1ccc(Cc2cc([C@@H]3O[C@H](CO)[C@@H](O)[C@H](O)[C@H]3O)c3c(c2Cl)SCC3)cc1`
Result: -0.04

Q: Field entry: `COc1ccc(Cc2cc([C@@H]3O[C@H](CO)[C@@H](O)[C@H](O)[C@H]3O)c3c(c2Cl)CCC3)cc1`
Result: -0.17

Q: Try this compound next: `OC[C@H]1O[C@@H](c2cc(Cc3ccc(C4CC4)cc3)c(Cl)c3ccoc23)[C@H](O)[C@@H](O)[C@@H]1O`
Result: 1.26

Q: Again, but for `OC[C@H]1O[C@@H](c2ccc(Cl)c(Cc3ccc4c(c3)SCCO4)c2)[C@H](O)[C@@H](O)[C@@H]1O`
Result: 0.24

Q: Next entry: `COc1ccc(Cc2cc([C@@H]3O[C@H](CO)[C@@H](O)[C@H](O)[C@H]3O)c3c(c2C)CCC3)cc1`
Result: -0.10

Q: What do you have for `COc1ccc(Cc2cc([C@@H]3O[C@H](CO)[C@@H](O)[C@H](O)[C@H]3O)c3c(c2Cl)OCC3)s1` ?
Result: 0.57

Q: Entry `Cc1ccc(Cc2cc([C@@H]3O[C@H](CO)[C@@H](O)[C@H](O)[C@H]3O)c3c(c2Cl)CCC3)cc1` please
Result: -0.09

Q: Same lookup for `OC[C@H]1O[C@@H](c2cc(Cc3ccc(C4CC4)cc3)c(Cl)c3c2OCC3)[C@H](O)[C@@H](O)[C@@H]1O` , please.
Result: 0.04

Q: Check CNc1ccc(Cc2cc([C@@H]3O[C@H](CO)[C@@H](O)[C@H](O)[C@H]3O)c3c(c2Cl)CCC3)cc1 [Example E140, 2,2,2-trifluoroacetate] too.
Result: 0.13

Q: Subsequent entry: `Cc1c(Cc2ccc3c(c2)OCCO3)cc([C@@H]2O[C@H](CO)[C@@H](O)[C@H](O)[C@H]2O)c2c1CCC2`
Result: -0.07

Q: And then `OC[C@H]1O[C@@H](c2ccc(Cl)c(Cc3ccc4c(cnn4Cc4ccccc4)c3)c2)[C@H](O)[C@@H](O)[C@@H]1O` , what is it?
Result: 0.38

Q: Repeat with C=Cc1ccc(Cc2cc([C@@H]3O[C@H](CO)[C@@H](O)[C@H](O)[C@H]3O)c3c(c2Cl)OC(C)C3)cc1 (some centres unmarked)
Result: 0.00

Q: Item: `OC[C@H]1O[C@@H](c2cc(Cc3ccc(C4CC4)cc3)c(Cl)c3c2CCC3)[C@H](O)[C@@H](O)[C@@H]1O`
Result: -0.17

Q: Now try `OC[C@H]1O[C@@H](c2cc(Cc3ccc4c(c3)OCCO4)c(Cl)c3c2OCCO3)[C@H](O)[C@@H](O)[C@@H]1O` .
Result: 0.26

Q: Param item: `OC[C@H]1O[C@@H](c2cc(Cc3ccc(C4CC4)cc3)c(Cl)c3c2CCCO3)[C@H](O)[C@@H](O)[C@@H]1O`
Result: -0.06

Q: Cool, now `C#Cc1ccc(Cc2cc([C@@H]3O[C@H](CO)[C@@H](O)[C@H](O)[C@H]3O)c3c(c2Cl)OCC3)cc1`
Result: 0.01

====

- experimental-system: UniProtKB P31639
- test-summary: Inhibitory effects on human SGLT2 activities (14C-AMG uptake, sodium-dependent glucose transport assay)
- condition-set: CHO cells stably expressing hSGLT2, 37° C., 2 h, single determinations
recorded-endpoint: pIC50
Keep it numeric: pIC50 is minus log10 of the concentration in mol/L.

Q: Reported pIC50 for UniProtKB P31639, given `OC[C@H]1O[C@@H](c2cc(Cc3ccc4c(c3)OCCO4)c(Cl)cc2O)[C@H](O)[C@@H](O)[C@@H]1O` ?
Result: 8.79

Q: Item: `COc1ccc(Cc2cc([C@@H]3O[C@H](CO)[C@@H](O)[C@H](O)[C@H]3O)c3occ(OC)c3c2Cl)cc1`
Result: 7.37

Q: Next record, please: `OC[C@H]1O[C@@H](c2cc(Cc3ccc4c(c3)OCCO4)c(Cl)c3c2OCCC3)[C@H](O)[C@@H](O)[C@@H]1O`
Result: 8.78

Q: Same for `COc1ccc(Cc2cc([C@@H]3O[C@H](CO)[C@@H](O)[C@H](O)[C@H]3O)c3c(c2Cl)SCCC3)cc1`
Result: 9.26

Q: Next compound: `OC[C@H]1O[C@@H](c2ccc(Cl)c(Cc3ccc4ncccc4c3)c2)[C@H](O)[C@@H](O)[C@@H]1O`
Result: 8.73

Q: And the next one, `OC[C@H]1O[C@@H](c2cc(Cc3ccc(OC4CCCC4)cc3)c(Cl)c3c2CCO3)[C@H](O)[C@@H](O)[C@@H]1O` ?
Result: 8.80

Q: Another compound to check: `CCc1ccc(Cc2cc([C@@H]3O[C@H](CO)[C@@H](O)[C@H](O)[C@H]3O)c3c(c2Cl)OCC3)cc1`
Result: 9.15

====

- experimental-system: human SGLT2 (Homo sapiens (Human))
- Sequence (P31639 whole entry): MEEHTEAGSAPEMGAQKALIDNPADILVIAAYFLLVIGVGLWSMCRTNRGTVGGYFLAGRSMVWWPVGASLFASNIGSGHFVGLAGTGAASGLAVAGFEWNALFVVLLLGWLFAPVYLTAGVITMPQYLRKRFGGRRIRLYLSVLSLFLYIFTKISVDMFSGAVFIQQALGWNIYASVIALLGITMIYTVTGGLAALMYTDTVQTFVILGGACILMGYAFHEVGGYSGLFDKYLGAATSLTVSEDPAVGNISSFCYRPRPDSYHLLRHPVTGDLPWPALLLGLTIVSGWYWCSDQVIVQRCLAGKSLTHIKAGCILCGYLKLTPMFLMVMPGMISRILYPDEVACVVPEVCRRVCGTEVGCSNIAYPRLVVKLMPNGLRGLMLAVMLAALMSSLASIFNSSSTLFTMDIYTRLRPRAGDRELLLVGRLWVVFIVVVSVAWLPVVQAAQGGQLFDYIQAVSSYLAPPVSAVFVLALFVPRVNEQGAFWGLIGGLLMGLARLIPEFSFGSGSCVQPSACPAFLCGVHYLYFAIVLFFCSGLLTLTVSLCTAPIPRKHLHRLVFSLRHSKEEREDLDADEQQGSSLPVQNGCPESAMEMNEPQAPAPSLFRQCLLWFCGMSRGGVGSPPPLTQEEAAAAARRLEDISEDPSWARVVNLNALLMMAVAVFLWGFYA
- test-summary: Inhibitory effects on human SGLT2 activities (14C-AMG uptake, sodium-dependent glucose transport assay)
- Type: cell-based
- condition-set: CHO cells stably expressing hSGLT2, 37° C., 2 h, single determinations
- Text: Test 1: Cloning and Cell Line Construction for Human SGLT2 Human SGLT2 (hSGLT2) gene was amplified by PCR from cDNA-Human Adult Normal Tissue Kidney (Invitrogen). The hSGLT2 sequence was cloned into pcDNA3.1(+) for mammalian expression and stably transfected into chinese hamster ovary (CHO) cells. SGLT2-expressing clones were selected based on resistance to G418 antibiotic (Geneticin) and activity in the ^14C-α-methyl-D-glucopyranoside (^14C-AMG) uptake assay. […]
Using IC50 as the sorting value, the categories are bottom bin = under 1 nM, middle bin = from 1 nM up to 4 nM, top bin = 4 nM and over

Q: Category of `OC[C@H]1O[C@@H](c2cc(Cc3ccc(OC(F)(F)F)cc3)c(Cl)c3c2CCO3)[C@H](O)[C@@H](O)[C@@H]1O` :
Result: middle bin

Q: Follow-up entry: `CS[C@H]1O[C@@H](c2ccc(Cl)c(Cc3ccc4c(c3)OCCO4)c2)[C@H](O)[C@@H](O)[C@@H]1O`
Result: bottom bin

Q: Entry to check: `CC(C)n1cc2cc(Cc3cc([C@@H]4O[C@H](CO)[C@@H](O)[C@H](O)[C@H]4O)ccc3Cl)ccc2n1`
Result: top bin

Q: Another compound: `CCCOc1ccc(Cc2cc([C@@H]3O[C@H](CO)[C@@H](O)[C@H](O)[C@H]3O)c3c(c2Cl)OCC3)cc1`
Result: middle bin

Q: // repeat for `CCCc1ccc(Cc2cc([C@@H]3O[C@H](CO)[C@@H](O)[C@H](O)[C@H]3O)c3occc3c2Cl)cc1` and report
Result: top bin

Q: Another compound: `CCCc1c(Cc2ccc(OCC)cc2)cc([C@@H]2O[C@H](CO)[C@@H](O)[C@H](O)[C@H]2O)c2c1OCC2`
Result: top bin

Q: And `CCn1cc2cc(Cc3cc([C@@H]4O[C@H](CO)[C@@H](O)[C@H](O)[C@H]4O)ccc3Cl)ccc2n1` ?
Result: middle bin

Q: Query `N#Cc1ccc(Cc2cc([C@@H]3O[C@H](CO)[C@@H](O)[C@H](O)[C@H]3O)c3c(c2Cl)OCC3)cc1` next
Result: top bin

Q: For CCOc1ccc(Cc2cc([C@@H]3O[C@H](CO)[C@@H](O)[C@H](O)[C@H]3O)c3c(c2Cl)CC(C)O3)cc1 (stereo partly drawn) then?
Result: middle bin

Q: Same question, `CO[C@H]1O[C@@H](c2ccc(Cl)c(Cc3ccc4c(c3)OCCO4)c2)[C@H](O)[C@@H](O)[C@@H]1O` this time
Result: top bin

Q: Thanks! And `CCOc1ccc(Cc2cc([C@@H]3O[C@H](SC)[C@@H](O)[C@H](O)[C@H]3O)cc(OC)c2Cl)cc1` ?
Result: bottom bin

Q: Next entry: `OC[C@H]1O[C@@H](c2ccc(Cl)c(Cc3ccc4c(c3)CCCC4)c2)[C@H](O)[C@@H](O)[C@@H]1O`
Result: middle bin

Q: Next compound up: `OC[C@H]1O[C@@H](c2cc(Cc3ccc(Cl)cc3)c(Cl)c3c2OCC3)[C@H](O)[C@@H](O)[C@@H]1O`
Result: middle bin

Q: Please answer likewise for `COc1ccc(Cc2cc([C@@H]3O[C@H](OC)[C@@H](O)[C@H](O)[C@H]3O)c3c(c2Br)CCC3)cc1`
Result: middle bin

Q: For `C=Cc1ccc(Cc2cc([C@@H]3O[C@H](CO)[C@@H](O)[C@H](O)[C@H]3O)c3c(c2Cl)CCO3)cc1` then?
Result: middle bin

Q: Again, but for `CCOc1ccc(Cc2cc([C@@H]3O[C@H](CO)[C@@H](O)[C@H](O)[C@H]3O)cc(-c3cccs3)c2C)cc1`
Result: middle bin

Q: Also need `COc1ccc(Cc2cc([C@@H]3O[C@H](CO)[C@@H](O)[C@H](O)[C@H]3O)c3c(c2Cl)OCO3)cc1` , thanks.
Result: middle bin

Q: And CCOc1ccc(Cc2cc([C@@H]3O[C@H](CO)[C@@H](O)[C@H](O)[C@H]3O)c3c(c2Cl)OCC3OC)cc1 (stereo partly drawn) ?
Result: top bin

Q: Moving on to the next compound: `CCOc1ccc(Cc2cc3c(c([C@@H]4O[C@H](CO)[C@@H](O)[C@H](O)[C@H]4O)c2)CCC3)cc1`
Result: top bin

Q: Another compound: CCOc1ccc(Cc2cc([C@@H]3O[C@H](CO)[C@@H](O)[C@H](O)[C@H]3O)c3c(c2Cl)CC(C)S3)cc1 (stereo partly drawn)
Result: middle bin

Q: Next record, please: COc1ccc(Cc2cc([C@@H]3O[C@H](CO)[C@@H](O)[C@H](O)[C@H]3O)c3c(c2Cl)OC(C)C3)cc1 (stereo partly drawn)
Result: middle bin

Q: // next record `OC[C@H]1O[C@@H](c2cc(Cc3ccc(C4CC4)cc3)c(Cl)c3c2OCCO3)[C@H](O)[C@@H](O)[C@@H]1O`
Result: bottom bin

Q: Record: `CCOc1ccc(Cc2cc([C@@H]3O[C@H](CO)[C@@H](O)[C@H](O)[C@H]3O)cc(-c3ccccc3)c2C)cc1`
Result: middle bin

Q: Would you kindly repeat that for COc1ccc(Cc2cc([C@@H]3O[C@H](CO)[C@@H](O)[C@H](O)[C@H]3O)c3c(c2Cl)C(O)CO3)cc1 (stereo partly drawn) ?
Result: middle bin

Q: Same lookup for `CCOc1ccc(Cc2cc([C@@H]3O[C@H](CO)[C@@H](O)[C@H](O)[C@H]3O)c3c(c2Br)CCC3)cc1` , please.
Result: bottom bin
